system: mu-opioid receptor (MOR) (Rattus norvegicus, UniProt P33535)
Construct: Rat cortices were homogenized using 50 mM Tris, pH 7.4, and centrifuged at 16,500 rpm for 10 min; from tissue; host or cells: rat cortex membranes
method: MOR radioligand competition binding assay ([3H]-DAMGO)
condition.info: Mu screening results, experiment 1; unit inferred; read-out: Ki (Exp 1)
pKi: −log10 of the molar value.
Binary call on pKi: satisfied from 7 upward, not satisfied beneath that.

>>> assigned_category("CC(C)C[C@H]1CN([C@@H](Cc2ccccc2)CN2C(=N)NC[C@@H]2Cc2ccc(O)cc2)C(=N)N1 [1968-69]")
"not satisfied"
>>> assigned_category("CC(C)C[C@H]1CN([C@@H](Cc2ccc(O)cc2)CN2C(=N)NC[C@@H]2Cc2ccccc2)C(=N)N1 [1968-66]")
"not satisfied"
>>> assigned_category("Cc1cc(O)cc(C)c1C[C@@H](CN1C(=N)NC[C@@H]1C)N1C[C@H](CC(C)C)NC1=N [1968-19]")
"satisfied"
>>> assigned_category("N=C1NC[C@H](Cc2ccc(O)cc2)N1C[C@H](Cc1ccc(O)cc1)N1C[C@H](Cc2ccccc2)NC1=N [1968-21]")
"not satisfied"

* * *

system: kappa-opioid receptor (KOR) (Cavia porcellus)
Construct: Guinea pig cortices and cerebella were homogenized using 50 mM Tris, pH 7.4; from tissue; host or cells: guinea pig cortex and cerebellum membranes
method: KOR radioligand competition binding assay ([3H]U69,593)
Set-up: species or system guinea pig
condition.info: Kappa screening results, experiment 1; unit inferred; read-out: Ki (Exp 1)
pKi: −log10 of the molar value.
Each record here notes measured pKi.
property.name: pKi

>>> val("N=C1NC[C@H](Cc2ccc(O)cc2)N1C[C@H](Cc1ccc(O)cc1)N1C[C@H](Cc2ccc(O)cc2)NC1=N")
4.95
>>> val("Cc1cc(O)cc(C)c1C[C@H]1CN([C@@H](Cc2ccccc2)CN2C(=N)NC[C@@H]2C)C(=N)N1")
5.99
>>> val("Cc1cc(O)cc(C)c1C[C@H]1CNC(=N)N1C[C@H](Cc1ccccc1)N1C[C@H](Cc2ccccc2)NC1=N")
5.91
>>> val("Cc1cc(O)cc(C)c1C[C@H]1CN([C@@H](CC(C)C)CN2C(=N)NC[C@@H]2C)C(=N)N1")
5.74
>>> val("Cc1cc(O)cc(C)c1C[C@H]1CNC(=N)N1C[C@H](CC(C)C)N1C[C@H](Cc2ccccc2)NC1=N")
6.43
>>> val("Cc1cc(O)cc(C)c1C[C@H]1CN([C@@H](Cc2ccccc2)CN2C(=N)NC[C@@H]2Cc2ccc(O)cc2)C(=N)N1")
6.01
>>> val("CC(C)C[C@H]1CN([C@@H](Cc2ccc(O)cc2)CN2C(=N)NC[C@@H]2Cc2ccccc2)C(=N)N1")
5.58
>>> val("Cc1cc(O)cc(C)c1C[C@H]1CNC(=N)N1C[C@H](CC(C)C)N1C[C@H](Cc2ccc(O)cc2)NC1=N")
6.27

* * *

system: mu-opioid receptor (MOR) (Rattus norvegicus, UniProt P33535)
Construct: Rat cortices were homogenized using 50 mM Tris, pH 7.4, and centrifuged at 16,500 rpm for 10 min; from tissue; host or cells: rat cortex membranes
method: MOR radioligand competition binding assay ([3H]-DAMGO)
condition.info: Mu screening results, experiment 2; unit inferred; read-out: Ki (Exp 2)
Procedure: MOR binding assay: Rat cortices were homogenized using 50 mM Tris, pH 7.4, and centrifuged at 16,500 rpm for 10 min. The pellets were resuspended in fresh buffer and incubated at 37 °C for 30 min. […] All three binding assays were terminated by filtration through GF/B filters, soaked in 5 mg/mL bovine serum albumin, 50 mM Tris, pH 7.4, on a Tomtec Mach II Harvester 96. […] Bound radioactivity was counted on a Wallac Betaplate Liquid Scintillation Counter. […]
pKi: −log10 of the molar value.
Definition: the class of an entry is the range in low range: < 6; mid range: ≥ 6 and < 7; high range: ≥ 7 that contains its pKi.

>>> assigned_category("C[C@H]1CNC(=N)N1C[C@H](Cc1ccccc1)N1C[C@H](Cc2ccccc2)NC1=N")
"low range"
>>> assigned_category("Cc1cc(O)cc(C)c1C[C@H]1CNC(=N)N1C[C@H](Cc1c(C)cc(O)cc1C)N1C[C@H](Cc2ccccc2)NC1=N")
"high range"
>>> assigned_category("Cc1cc(O)cc(C)c1C[C@H]1CN([C@@H](Cc2ccc(O)cc2)CN2C(=N)NC[C@@H]2C)C(=N)N1")
"high range"
>>> assigned_category("CC(C)C[C@H]1CN([C@@H](Cc2ccccc2)CN2C(=N)NC[C@@H]2C)C(=N)N1")
"low range"
>>> assigned_category("Cc1cc(O)cc(C)c1C[C@@H](CN1C(=N)NC[C@@H]1Cc1ccccc1)N1C[C@H](Cc2ccccc2)NC1=N")
"mid range"
>>> assigned_category("Cc1cc(O)cc(C)c1C[C@H]1CNC(=N)N1C[C@H](Cc1ccc(O)cc1)N1C[C@H](CC(C)C)NC1=N")
"high range"
>>> assigned_category("CC(C)C[C@H]1CN([C@@H](CC(C)C)CN2C(=N)NC[C@@H]2C)C(=N)N1")
"low range"
>>> assigned_category("Cc1cc(O)cc(C)c1C[C@H]1CN([C@@H](Cc2ccc(O)cc2)CN2C(=N)NC[C@@H]2Cc2ccccc2)C(=N)N1")
"high range"
>>> assigned_category("CC(C)C[C@@H](CN1C(=N)NC[C@@H]1C)N1C[C@H](Cc2ccc(O)cc2)NC1=N")
"low range"
>>> assigned_category("Cc1cc(O)cc(C)c1C[C@@H](CN1C(=N)NC[C@@H]1Cc1ccc(O)cc1)N1C[C@H](CC(C)C)NC1=N")
"mid range"
>>> assigned_category("CC(C)C[C@H]1CN([C@@H](Cc2ccc(O)cc2)CN2C(=N)NC[C@@H]2C)C(=N)N1")
"low range"
>>> assigned_category("N=C1NC[C@H](Cc2ccc(O)cc2)N1C[C@H](Cc1ccccc1)N1C[C@H](Cc2ccc(O)cc2)NC1=N")
"mid range"
>>> assigned_category("CC(C)C[C@H]1CN([C@@H](Cc2ccccc2)CN2C(=N)NC[C@@H]2Cc2ccc(O)cc2)C(=N)N1")
"mid range"
